- assay.explanation: in vitro
- measurement.setup: human, HEK293 cells (Flp-In-293), HEK293 viability, Dose 50 µM
property.measured: viability at 2 days, 50 µM (%)
Report the value in % with no unit label.

Field: example entries. Status: answers known.
Cc1ccccc1OCCCn1c(C)nc2ccccc21 | 41.6
Cc1nc2ccccc2n1CCOc1ccccc1 | 100
Cc1ccc(CSCc2nc3ccccc3[nH]2)cc1 | 64.3
CC(C)Oc1cccc(OCCn2cnc3ccccc32)c1 | 85.9

compound Cc1ccc(OCCn2cnc3ccccc32)cc1 , viability at 2 days, 50 µM observed: 96.4

Lab note: measured viability at 2 days, 50 µM of Clc1ccc(OCCn2cnc3ccccc32)c(Cl)c1 was 61.2

The reported value for Clc1ccc(Cn2cnc3ccccc32)cc1Cl in terms of viability at 2 days, 50 µM is 57.7

Entry under test: Cc1ccc(SCCCCn2cnc3ccccc32)cc1 . Its viability at 2 days, 50 µM was 77.2

For this compound ( Cc1nc2ccccc2n1Cc1ccc(Cl)c(Cl)c1 ), measured viability at 2 days, 50 µM is 72.1

Record Brc1ccccc1OCCCCn1cnc2ccccc21 . Reported viability at 2 days, 50 µM: 40.2

Documented viability at 2 days, 50 µM of Cc1ccc(SCCCn2cnc3ccccc32)cc1 : 65.6

viability at 2 days, 50 µM reported for this compound CCCOc1ccc(Cn2cnc3ccccc32)cc1 : 78.9

###

- system.tested: C. elegans (N2) complex I (NADH:ubiquinone oxidoreductase) (Caenorhabditis elegans, UniProt P24887+Q93873+Q94360)
- Sequence (Q94360 17-199): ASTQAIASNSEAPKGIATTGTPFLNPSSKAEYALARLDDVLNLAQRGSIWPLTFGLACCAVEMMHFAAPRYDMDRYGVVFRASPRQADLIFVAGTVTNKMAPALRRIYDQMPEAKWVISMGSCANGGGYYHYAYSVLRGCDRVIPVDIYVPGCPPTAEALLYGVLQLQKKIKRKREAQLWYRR
- Sequence (P24887 whole entry): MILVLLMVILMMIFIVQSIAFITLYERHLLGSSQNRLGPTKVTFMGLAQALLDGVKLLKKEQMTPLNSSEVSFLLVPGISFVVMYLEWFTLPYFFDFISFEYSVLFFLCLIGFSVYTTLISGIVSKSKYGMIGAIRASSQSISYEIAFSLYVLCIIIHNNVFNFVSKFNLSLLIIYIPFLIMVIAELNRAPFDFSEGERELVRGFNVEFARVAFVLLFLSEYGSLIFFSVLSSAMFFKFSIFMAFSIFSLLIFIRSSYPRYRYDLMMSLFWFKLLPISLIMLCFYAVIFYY
- Sequence (Q93873 31-482): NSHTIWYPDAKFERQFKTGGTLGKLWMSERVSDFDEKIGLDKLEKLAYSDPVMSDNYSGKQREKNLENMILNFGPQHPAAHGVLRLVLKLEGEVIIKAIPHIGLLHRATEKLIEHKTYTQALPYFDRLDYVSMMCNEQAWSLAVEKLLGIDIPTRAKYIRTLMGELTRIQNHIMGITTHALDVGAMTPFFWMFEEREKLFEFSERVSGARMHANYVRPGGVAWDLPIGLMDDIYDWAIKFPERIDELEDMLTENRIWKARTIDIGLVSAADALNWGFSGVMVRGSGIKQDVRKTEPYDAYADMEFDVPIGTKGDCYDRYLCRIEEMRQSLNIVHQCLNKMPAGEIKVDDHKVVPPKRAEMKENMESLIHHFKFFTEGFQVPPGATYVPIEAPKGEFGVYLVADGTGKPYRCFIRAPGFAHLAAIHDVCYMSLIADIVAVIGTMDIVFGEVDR
- assay.explanation: biochemical
- Assay type: biochemical
- measurement.setup: wild-type (N2) mitochondria; read-out: C. elegans Complex I IC50
pIC50: −log10 of the molar value.
Quick rule: pIC50 of at least 6 means rule met, below that means rule not met.

Field: example entries. Status: answers known.
Cc1nn(C)c(Oc2ccccc2)c1C=NOCc1ccc(C(=O)OC(C)(C)C)cc1 [Fenpyroximate, reference compound] | rule met
Brc1ccc(Cn2cnc3ccccc32)cc1 [Compound 5542661] | rule met
Cc1nc2ccccc2n1Cc1ccc(Cl)c(Cl)c1 [Compound 5655567] | rule met
Clc1ccc(Cn2cnc3ccccc32)cc1Cl [Compound 5571325] | rule not met

INPUT: Tell me whether pIC50 is at least 6 here: COc1cc2c(cc1OC)C(c1ccc(-c3ccc(Cl)c(Cl)c3)o1)=NCC2 [NPD3577]
OUTPUT: rule not met

INPUT: Please tell me: is the molecule CC(C)Cc1ccc(C(C)c2nc3ccccc3n2C(C)C)cc1 (stereo not drawn) [STK951903] at or over 6 in terms of pIC50?
OUTPUT: rule not met

INPUT: Could you please find out whether Nc1nc2ccccc2n1Cc1ccc(Cl)cc1 [Compound 5652765] has pIC50 that meets 6 or exceeds it?
OUTPUT: rule met

INPUT: Test whether the molecule C=CCn1c(C(C)c2ccc(CC(C)C)cc2)nc2ccccc21 (stereo not drawn) [STL020755] records pIC50 of 6 or higher.
OUTPUT: rule not met

###

Each record here notes measured activity at 75 µM.
- system.tested: M. musculus (heart) complex I (Mus musculus, UniProt P03888+Q91WD5+Q9DC70)
- Sequence (Q91WD5 34-463): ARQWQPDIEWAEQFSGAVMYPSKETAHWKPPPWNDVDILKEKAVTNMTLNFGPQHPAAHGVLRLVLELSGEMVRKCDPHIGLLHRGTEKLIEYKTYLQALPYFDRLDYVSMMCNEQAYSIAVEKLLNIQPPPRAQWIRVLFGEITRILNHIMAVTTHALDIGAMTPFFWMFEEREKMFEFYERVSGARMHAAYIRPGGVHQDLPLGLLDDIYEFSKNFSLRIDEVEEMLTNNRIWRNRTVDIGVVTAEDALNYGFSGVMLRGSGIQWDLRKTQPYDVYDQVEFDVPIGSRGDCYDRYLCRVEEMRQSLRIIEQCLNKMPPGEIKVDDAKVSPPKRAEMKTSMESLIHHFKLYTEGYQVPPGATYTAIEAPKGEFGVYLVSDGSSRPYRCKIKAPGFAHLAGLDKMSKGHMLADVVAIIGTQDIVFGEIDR
- Sequence (Q9DC70 36-224): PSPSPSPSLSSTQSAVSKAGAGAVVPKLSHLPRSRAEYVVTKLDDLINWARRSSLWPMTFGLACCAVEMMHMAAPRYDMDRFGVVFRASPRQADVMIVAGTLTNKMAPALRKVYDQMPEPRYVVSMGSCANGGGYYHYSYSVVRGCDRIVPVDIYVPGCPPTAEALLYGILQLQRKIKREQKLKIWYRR
- Sequence (P03888 whole entry): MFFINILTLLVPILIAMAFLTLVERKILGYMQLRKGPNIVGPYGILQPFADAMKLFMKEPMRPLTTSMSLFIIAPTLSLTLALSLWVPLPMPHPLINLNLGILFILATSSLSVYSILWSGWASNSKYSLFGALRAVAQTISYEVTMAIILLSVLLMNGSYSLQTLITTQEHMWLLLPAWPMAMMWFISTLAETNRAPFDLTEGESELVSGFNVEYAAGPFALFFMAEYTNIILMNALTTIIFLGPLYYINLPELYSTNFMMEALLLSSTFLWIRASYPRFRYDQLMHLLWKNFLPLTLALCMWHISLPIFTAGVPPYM
- assay.explanation: biochemical
- Assay type: biochemical
- measurement.setup: M. musculus; dose 75 µM; Mean of replicates; read-out: Complex I activity, dose-response data
Give just the number in %; leave the unit off.

# example entries with known answers
COc1cc2c(cc1OC)C(C(C)c1ccc(CC(C)C)cc1)=NCC2 (stereo not shown) [NPD10504] | 3.69
COc1cc2c(cc1OC)C(/C=C/c1ccc(N(C)C)cc1)=NCC2 [NPD6303] | 38.9

Notebook: COc1cc2c(cc1OC)C(c1ccc(-c3ccc(Cl)c(Cl)c3)o1)=NCC2 [NPD3577] , activity at 75 µM read as 50.2

GET /value?item= CC(C)Cc1ccc(C(C)c2nc3ccccc3n2C)cc1 (stereo not shown) [NPD8790] &field=activity at 75 µM returns 24.7

###

- assay.explanation: in vitro
- measurement.setup: human, HEK293 viability, Dose 50 µM
property.measured: viability (%)
Give just the number in %; leave the unit off.

// viability value for Cc1ccc(OCCn2cnc3ccccc32)c(C)c1 : 94.6

###

LC50 by entry:
- System: L1 wild-type C. elegans
- measurement.setup: caenorhabditis elegans
# output: bare number, implied unit µM

Recorded LC50, per entry:
Cc1cc(O)c(C(=O)/C=C/c2ccc(C(C)C)cc2)c(=O)o1 | 7.6
CCCCCCCCCCCCCCCc1cccc(O)c1C(=O)O | 3.35
O=C(/C=C/c1ccccc1)/C=C/c1ccccc1 | 0.93
Cc1nc2ccc(Br)cc2c2c1CC(C)O2 (racemic) | 19
Cc1nc2ccc(Br)cc2c2c1CC(C(C)(Cl)Br)O2 (racemic) | 14.5
COc1ccccc1/C=C/C(=O)c1cc(C)ccc1O | 14.7

# ---- query compound ----
LC50 in this record for Cc1ccc(N=c2cc(-c3ccc4c(c3)OCO4)oc3ccccc23)cc1C : 13.6

###

- System: L1 wild-type C. elegans
- measurement.setup: Dose 3.13 µM
Reported C. elegans KCN Survival values for the following compounds.
Field format: numeric only.

Recorded C. elegans KCN Survival (compound Clc1ccccc1OCCCCn1cnc2ccccc21 [Compound 7925804] ): 1.018

Notebook: Cc1ccc(CSCc2nc3ccccc3[nH]2)cc1 [Compound 7121781] , C. elegans KCN Survival read as 0.857

The reported value for Brc1ccccc1OCCCCn1cnc2ccccc21 [Compound 7924576] in terms of C. elegans KCN Survival is 0.862

Record summary for Cc1ccccc1OCCCCn1cnc2ccccc21 [Compound 7732524] : reported C. elegans KCN Survival = 0.828

Form: compound = Cc1cccc(OCCn2c(C)nc3ccccc32)c1 [Compound 6285199] ; C. elegans KCN Survival = 1.093

###

Catalogue of activity at 0.013 µM values
- system.tested: B. taurus (heart) complex I (Bos taurus, UniProt P03887+P17694+P42026)
- Sequence (P03887 whole entry): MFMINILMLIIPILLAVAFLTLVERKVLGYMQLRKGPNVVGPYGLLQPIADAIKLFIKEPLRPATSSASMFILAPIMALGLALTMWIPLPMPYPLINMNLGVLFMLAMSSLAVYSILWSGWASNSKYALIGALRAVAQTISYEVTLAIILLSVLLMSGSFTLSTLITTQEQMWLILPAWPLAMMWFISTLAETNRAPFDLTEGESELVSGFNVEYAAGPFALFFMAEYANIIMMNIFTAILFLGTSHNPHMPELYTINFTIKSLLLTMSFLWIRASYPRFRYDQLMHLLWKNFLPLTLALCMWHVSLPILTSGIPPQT
- Sequence (P17694 34-463): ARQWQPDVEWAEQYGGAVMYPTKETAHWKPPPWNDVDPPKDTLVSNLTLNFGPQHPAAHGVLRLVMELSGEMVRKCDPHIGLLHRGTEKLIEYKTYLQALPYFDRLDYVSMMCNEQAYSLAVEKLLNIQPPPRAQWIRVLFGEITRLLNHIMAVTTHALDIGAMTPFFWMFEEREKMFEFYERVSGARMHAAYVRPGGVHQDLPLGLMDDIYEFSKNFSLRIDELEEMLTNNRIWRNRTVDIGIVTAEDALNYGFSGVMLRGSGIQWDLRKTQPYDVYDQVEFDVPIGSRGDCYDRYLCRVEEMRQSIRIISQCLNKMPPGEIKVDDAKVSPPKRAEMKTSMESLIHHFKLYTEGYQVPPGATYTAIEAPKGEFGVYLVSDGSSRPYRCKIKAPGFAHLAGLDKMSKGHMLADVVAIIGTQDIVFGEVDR
- Sequence (P42026 38-216): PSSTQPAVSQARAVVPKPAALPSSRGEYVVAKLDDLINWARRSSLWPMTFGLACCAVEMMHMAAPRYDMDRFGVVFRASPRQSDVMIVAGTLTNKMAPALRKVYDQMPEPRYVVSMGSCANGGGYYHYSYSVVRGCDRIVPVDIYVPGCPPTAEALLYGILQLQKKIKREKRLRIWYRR
- assay.explanation: biochemical
- Assay type: biochemical
- measurement.setup: Dose 0.013 µM; read-out: B. taurus mitochondrial complex I activity
Give the value, in units of %, as a plain number.

Completed entries (count: 4):
Cc1cccc(OCCn2c(C)nc3ccccc32)c1 | 97.1
Cc1nc2ccccc2n1CCOc1ccccc1 | 98.3
Brc1ccccc1OCCCCn1cnc2ccccc21 | 102
Cc1ccc(C(C)C)c(OCC(O)Cn2cnc3ccccc32)c1 (centres unmarked) | 100

Lab note: next molecule to report on.
Sure, the documented activity at 0.013 µM for Cc1nc2ccccc2n1CCOc1ccccc1Cl is 86.9

###

- system.tested: C. elegans (N2) complex I (NADH:ubiquinone oxidoreductase) (Caenorhabditis elegans, UniProt P24887+Q93873+Q94360)
- assay.explanation: biochemical
- Format: biochemical
- measurement.setup: Dose 0.005 µM; read-out: C. elegans mitochondrial complex I activity
Please respond with true when measured activity at 0.005 µM is strictly beneath 90%, and with false in all other cases.

Please review the entries below; each comes with its answer.
Cc1nc2ccccc2n1CCOc1ccccc1 | true
Clc1ccc(Cn2cnc3ccccc32)cc1Cl | false
Cc1ccccc1OCCCCn1cnc2ccccc21 | false
Clc1ccc(Cn2cnc3ccccc32)c(Cl)c1 | false

Now take the following compound into account.
INPUT: Here's an entry: Cc1nc2ccccc2n1CCOc1ccccc1Cl . Is its activity at 0.005 µM below 90%?
OUTPUT: false

###

- Tested on: L1 wild-type C. elegans
- assay.explanation: microbe, parasite or virus in culture
- measurement.setup: Caenorhabditis elegans, read-out: C. elegans KCN Survival Assay LC50, estimated from fitted dose-response curves; mean of at least two biological replicates
property.measured: LC50 (µM)
Supply the numeric figure in µM, leaving out any unit text.

Cc1ccc(SCCCn2cnc3ccccc32)cc1 | 4.71
Cc1nc2ccccc2n1Cc1ccc(F)cc1 | 27
CCc1ccc(CNc2nc3ccccc3n2C)cc1 | 30.5
Cc1ccccc1OCCCn1c(C)nc2ccccc21 | 12.1

get_value(item= Cc1ccc(Cn2c(C(C)C)nc3ccccc32)cc1 , readout=LC50) returns 24.9

Kindly note the recorded LC50 for Cc1nc2ccccc2n1Cc1ccccc1Cl , which is 8.24

Record Clc1ccc(Cn2cnc3ccccc32)c(Cl)c1 , field LC50: 4.28

Lab note: c1ccc2[nH]c(CSc3nc4ccccc4o3)nc2c1 gave LC50 of 26.8

Entry under test: Clc1ccc(OCCn2cnc3ccccc32)c(Cl)c1 . Its LC50 was 13

The recorded LC50 for Brc1ccccc1OCCCCn1cnc2ccccc21 is 6.73

Data point: CC(C)Oc1cccc(OCCn2cnc3ccccc32)c1 ; LC50 = 23

For this molecule ( Cc1nc2ccccc2n1Cc1ccc(C(C)C)cc1 ), measured LC50 is 7

Documented LC50 of Cc1ccccc1OCCCCn1cnc2ccccc21 : 6.37

Input C=CCn1c(C(C)c2ccc(CC(C)C)cc2)nc2ccccc21 (stereo not drawn) . Output LC50: 9.97

Record summary for Nc1nc2ccccc2n1Cc1ccc(Br)cc1 : reported LC50 = 14.9

So, CC(C)Cc1ccc(C(C)c2nc3ccccc3n2C(C)C)cc1 (stereo not drawn) ? Its LC50 was 25.1

Field LC50 (entry Cn1c(Cc2ccc(Cl)cc2)nc2ccccc21 ) reads 28.6

GET /value?item= Nc1nc2ccccc2n1Cc1ccc(Cl)cc1 &field=LC50 returns 16.9

The recorded LC50 for entry Cc1ccc(SCCCCn2cnc3ccccc32)cc1 equals 7.76

Value of LC50 reported for the molecule Cc1nc2ccccc2n1CCOc1ccccc1Cl is 11.7

For reference, reported LC50 for C(=C\c1nc2ccccc2[nH]1)/c1ccccc1 stands at 15
